Here, each record is paired with measured Change in body weight (%) data.
System: rat model of colitis
Assay: Acetic acid-induced colitis in the rat
Type: in vivo, Fisher 344 rats
Settings: 0.01 mmol/kg intrarectally, 4% acetic acid, assessed after 48 h
Protocol: LOX has also been associated with inflammation and ulcerative colitis. In the present study, a model for colitis involving intracolonic administration of aqueous 4% acetic acid in the rat was used, leading to acute inflammatory reaction. […] Assessment of colonic damage. […] The presence or absence of adhesions between the colon and the surrounding tissues was recorded. […]
The figure you give is taken to be in %; do not add the unit.

CN1CCN(c2nc(NCc3ccccc3)c3nccnc3n2)CC1 [Compound 18a] | -4.2
CN1CCN(c2nc(NCc3cccnc3)c3nccnc3n2)CC1 [Compound 18d] | -7
CN1CCN(c2nc(NCc3cccs3)c3nccnc3n2)CC1 [Compound 18f] | -10.7

Ask: Form field: reported Change in body weight (%) of CN1CCN(c2nc(N)c3nccnc3n2)CC1 [Compound 5a]
Result: -1.1

----------
# Lookup of reported RA (%) 100μM 60 min keyed by entry
Assay: Reducing ability in DPPH assay
Details: compound 100 μM, 60 min
Method: Previous work has shown that pterins, their dihydro- and their tetrahydro-derivatives can each be antioxidants or pro-oxidants, depending on the particular conditions. […] To a solution of DPPH in absolute ethanol was added an equal volume of the compound to be tested dissolved in DMSO (20 µL). […] The absorbance at 517 nm was recorded after 20 and 60 min at room temperature (Table 2).
Just the number in %, nothing appended.

Ask: Item CC(Cc1ccc(O)c(O)c1)C(C)Cc1ccc(O)c(O)c1 (stereo not drawn) [NDGA, Nordihydroguaiaretic acid, reference compound] has what recorded RA (%) 100μM 60 min?
Result: 83

Ask: Also, Cc1nc2nc(N3CCN(C)CC3)nc(NCc3cccs3)c2nc1C [Compound 18g] please.
Result: 12

Ask: And for "CN1CCN(c2nc(N)c3nc(-c4ccccc4)c(-c4ccccc4)nc3n2)CC1" ?
Result: 6

Ask: And what about the molecule CN1CCN(c2nc(NCCc3ccccc3)c3nccnc3n2)CC1 [Compound 18c] ?
Result: 18

Ask: Please do the same for "Cc1nc2nc(N3CCN(C)CC3)nc(N)c2nc1C" as well.
Result: 13

Ask: Please give the result for CN1CCN(c2nc(NCc3ccco3)c3nccnc3n2)CC1 [Compound 18e] too.
Result: 17
